B1: ADAMTSL2 (parent)
chain: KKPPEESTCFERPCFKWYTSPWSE

Variants of: B1
Assay: protein stability index of a GFP-peptide fusion (GPS, HEK-293T) (PSI 1-6); higher = more stable;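 also: lentivirally expressed fusions sorted by FACS into six bins by GFP to DsRed ratio, PSI derived from sequencing read proportions per bin multiplied by bin number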
Conditions: c terminus: a fixed tail appended
// reported protein stability index for each item listed
Reply with the value as a number alone.

Past entries and their recorded results:
C14I | 2.23
E6W | 1.87
S7M | 2.08
E11W | 1.64
P13R | 1.79

For the variant `T19F` , give its measured protein stability index value.
2.28

Using known records, supply protein stability index for `S23L`
2.34

Determine from records and report protein stability index for `S7V`
2.42
